- Measurement Target: PTP-PEST (Homo sapiens, UniProt Q05209)
- Sequence (Q05209 2-323, species assumed): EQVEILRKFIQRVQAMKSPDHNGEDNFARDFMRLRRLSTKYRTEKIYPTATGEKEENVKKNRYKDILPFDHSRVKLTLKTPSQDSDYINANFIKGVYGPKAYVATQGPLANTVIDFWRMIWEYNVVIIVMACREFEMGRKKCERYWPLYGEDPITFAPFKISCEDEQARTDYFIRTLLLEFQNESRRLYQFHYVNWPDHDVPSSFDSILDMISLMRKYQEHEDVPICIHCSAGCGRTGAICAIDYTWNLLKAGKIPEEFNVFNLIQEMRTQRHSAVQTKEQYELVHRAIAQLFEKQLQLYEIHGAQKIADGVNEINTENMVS
- Assay Notes: Counter-screen phosphatase assay PTP-PEST
- Assay type: biochemical
- Measurement Context: read-out: PEST IC50
Field: pIC50. Provide a value for each of the molecules that follow.
Quick note: pIC50 values are minus log10 of concentrations in mol/L.

# query: pIC50 of entry Cc1ccc2[nH]c(=O)c([C@H](c3nnnn3C3CCCC3)N3CCC(C)CC3)cc2c1
4.50

Consider next the molecule Cc1cc(C)c2cc([C@H](c3nnnn3C3CCCC3)N3CCC[C@@H](C)C3)c(=O)[nH]c2c1 in the same way.
4.46

Consider next the molecule CCC(C)(C)n1nnnc1[C@@H](c1cc2ccc(C)cc2[nH]c1=O)N1CCCC2(CCCCC2)C1 in the same way.
4.47

Consider next the molecule Cc1ccc2[nH]c(=O)c([C@H](c3nnnn3C3CCCC3)N3CCN(c4ccccc4)CC3)cc2c1 in the same way.
4.49

Consider next the molecule Cc1ccc2[nH]c(=O)c(C(c3nnnn3C3CCCC3)N3CCN(C(c4ccccc4)c4ccccc4)CC3)cc2c1 (centres unmarked) in the same way.
5.06

Consider next the molecule Cc1ccc2[nH]c(=O)c([C@@H](c3nnnn3C3CCCC3)N(Cc3ccccc3)Cc3ccc(Cl)cc3)cc2c1 in the same way.
4.77

Consider next the molecule CCC(C)(C)n1nnnc1[C@@H](c1cc2cc(C)ccc2[nH]c1=O)N1CCCC2(CCCCC2)C1 in the same way.
4.80

Consider next the molecule Cc1ccc2cc([C@H](c3nnnn3C(C)(C)C)N3CCCC4(CCCCC4)C3)c(=O)[nH]c2c1 in the same way.
4.57

Consider next the molecule Cc1ccc2cc(C(c3nnnn3C3CCCC3)N3CCCC4(CCCCC4)C3)c(=O)[nH]c2c1 (centres unmarked) in the same way.
4.66

Consider next the molecule Cc1ccc2[nH]c(=O)c([C@@H](c3nnnn3C3CCCC3)N3CCc4ccccc4C3)cc2c1 in the same way.
4.41

Consider next the molecule Cc1cccc2cc([C@H](c3nnnn3Cc3ccccc3)N3CCCC4(CCCCC4)C3)c(=O)[nH]c12 in the same way.
4.53
